Let's look at some compounds and their measured inhibition.
- TESTED SYSTEM: Neuronal acetylcholine receptor; alpha9/alpha10 (Homo sapiens) (UniProt Q9UGM1+Q9GZZ6)
- ASSAY DETAILS: Antagonist activity at human alpha9alpha10 nAChR expressed in Xenopus laevis oocytes assessed as inhibition of ACh-induced current amplitude at -80 mV holding potential at 100 nM by two-electrode voltage clamp method
- Format: cell-based
- CONDITIONS USED: Oocyte
Positions of bridges follow the written chain, without caps; N, C: chain ends. Residues, ends and D or L forms follow the SMILES beside them.
State just the number; it will be interpreted in %.

>>> value_observed("CC[C@H](C)[C@@H]1NC(=O)[C@H](CC(=O)O)NC(=O)[C@@H]2CCCN2C(=O)[C@H](CC(N)=O)NC(=O)[C@H](CC(N)=O)NC(=O)[C@H](C(C)C)NC(=O)[C@H](CO)NC(=O)[C@@H]2CSSC[C@H](NC(=O)CN)C(=O)N[C@@H](CSSC[C@@H](C(N)=O)NC1=O)C(=O)N[C@@H](CO)C(=O)N[C@@H](CCCNC(=N)N)C(=O)N1CCC[C@H]1C(=O)N[C@@H](C)C(=O)N2 (H-GCCSRPACSVNNPDIC-NH2; disulfide 2-8, 3-16)")
10

Task item: Request body: readout inhibition, system Neuronal acetylcholine receptor; alpha9/alpha10 (Homo sapiens) (UniProt Q9UGM1+Q9GZZ6), query CC[C@H](C)[C@@H]1NC(=O)[C@H](CC(=O)O)NC(=O)[C@@H]2CCCN2C(=O)[C@H](CC(N)=O)NC(=O)[C@H](CC(N)=O)NC(=O)[C@H](C(C)C)NC(=O)[C@H](CO)NC(=O)[C@@H]2CSSC[C@H](NC(=O)CN)C(=O)N[C@@H](CSSC[C@@H](C(=O)N[C@@H](Cc3ccc(O)cc3)C(N)=O)NC1=O)C(=O)N[C@@H](CO)C(=O)N[C@@H](Cc1cnc[nH]1)C(=O)N1CCC[C@H]1C(=O)N[C@@H](C)C(=O)N2 (H-GCCSHPACSVNNPDICY-NH2; disulfide 2-8, 3-16) . Return the value.
Reply: 15

Task item: Request body: readout inhibition, system Neuronal acetylcholine receptor; alpha9/alpha10 (Homo sapiens) (UniProt Q9UGM1+Q9GZZ6), query CC[C@H](C)[C@@H]1NC(=O)[C@H](CC(=O)O)NC(=O)[C@@H]2CCCN2C(=O)[C@H](CC(N)=O)NC(=O)[C@H](CC(N)=O)NC(=O)[C@H](Cc2ccc(O)cc2)NC(=O)[C@H](CO)NC(=O)[C@@H]2CSSC[C@H](NC(=O)CN)C(=O)N[C@@H](CSSC[C@@H](C(N)=O)NC1=O)C(=O)N[C@@H](CO)C(=O)N[C@@H](Cc1cnc[nH]1)C(=O)N1CCC[C@H]1C(=O)N[C@@H](C)C(=O)N2 (H-GCCSHPACSYNNPDIC-NH2; disulfide 2-8, 3-16) . Return the value.
Reply: 25

---

- TESTED SYSTEM: Neuronal acetylcholine receptor; alpha9/alpha10 (Homo sapiens) (UniProt Q9UGM1+Q9GZZ6)
- ASSAY DETAILS: Antagonist activity at human alpha9alpha10 nAChR expressed in Xenopus laevis oocytes assessed as inhibition of ACh-induced current amplitude at -80 mV holding potential at 100 nM by two-electrode voltage clamp method
- Type: cell-based
- CONDITIONS USED: Oocyte, filed as antagonist
Positions of bridges follow the written chain, without caps; N, C: chain ends. Non-standard residues stand in square brackets, D forms with d. Residues, ends and D or L forms follow the SMILES beside them. ξ: configuration not given here. ξDap = NCC(N)C(=O)O
PROPERTY: inhibition

Some entries whose results are on file:
>>> value_observed("CC[C@H](C)[C@@H]1NC(=O)[C@H](CC(=O)O)NC(=O)[C@@H]2CCCN2C(=O)[C@H](CC(N)=O)NC(=O)[C@H](CC(N)=O)NC(=O)C(CN)NC(=O)[C@H](CO)NC(=O)[C@@H]2CSSC[C@H](NC(=O)CN)C(=O)N[C@@H](CSSC[C@@H](C(N)=O)NC1=O)C(=O)NC(CN)C(=O)N[C@@H](Cc1cnc[nH]1)C(=O)N1CCC[C@H]1C(=O)N[C@@H](C)C(=O)N2 (stereo partly specified) (H-GCC[ξDap]HPACS[ξDap]NNPDIC-NH2; disulfide 2-8, 3-16)")
"> 95%"
>>> value_observed("CC[C@H](C)[C@@H]1NC(=O)[C@H](CC(=O)O)NC(=O)[C@@H]2CCCN2C(=O)[C@H](CC(N)=O)NC(=O)[C@H](CC(N)=O)NC(=O)C(CN)NC(=O)[C@H](CO)NC(=O)[C@@H]2CSSC[C@H](NC(=O)CN)C(=O)N[C@@H](CSSC[C@@H](C(N)=O)NC1=O)C(=O)N[C@@H](CO)C(=O)N[C@@H](Cc1cnc[nH]1)C(=O)N1CCC[C@H]1C(=O)N[C@@H](C)C(=O)N2 (stereo partly specified) (H-GCCSHPACS[ξDap]NNPDIC-NH2; disulfide 2-8, 3-16)")
"> 90%"

Task item: Using the record for CC[C@H](C)[C@@H]1NC(=O)[C@H](CC(=O)O)NC(=O)[C@@H]2CCCN2C(=O)[C@H](CC(N)=O)NC(=O)[C@H](CC(N)=O)NC(=O)[C@H](C(C)C)NC(=O)[C@H](CO)NC(=O)[C@@H]2CSSC[C@H](NC(=O)CN)C(=O)N[C@@H](CSSC[C@@H](C(=O)N[C@@H](CCCNC(=N)N)C(N)=O)NC1=O)C(=O)N[C@@H](CO)C(=O)N[C@@H](Cc1cnc[nH]1)C(=O)N1CCC[C@H]1C(=O)N[C@@H](C)C(=O)N2 (H-GCCSHPACSVNNPDICR-NH2; disulfide 2-8, 3-16) , report its inhibition.
Reply: 60%

Task item: Using the record for CC[C@H](C)[C@@H]1NC(=O)[C@H](CC(=O)O)NC(=O)[C@@H]2CCCN2C(=O)[C@H](CC(N)=O)NC(=O)[C@H](CC(N)=O)NC(=O)[C@H](C(C)C)NC(=O)[C@H](CO)NC(=O)[C@@H]2CSSC[C@H](NC(=O)CN)C(=O)N[C@@H](CSSC[C@@H](C(N)=O)NC1=O)C(=O)NC(CN)C(=O)N[C@@H](Cc1cnc[nH]1)C(=O)N1CCC[C@H]1C(=O)N[C@@H](C)C(=O)N2 (stereo partly specified) (H-GCC[ξDap]HPACSVNNPDIC-NH2; disulfide 2-8, 3-16) , report its inhibition.
Reply: > 85%

Task item: Using the record for CC[C@H](C)[C@@H]1NC(=O)[C@H](CC(=O)O)NC(=O)[C@@H]2CCCN2C(=O)[C@H](CC(N)=O)NC(=O)[C@H](CC(N)=O)NC(=O)[C@H](C(C)C)NC(=O)C(CN)NC(=O)[C@@H]2CSSC[C@H](NC(=O)CN)C(=O)N[C@@H](CSSC[C@@H](C(N)=O)NC1=O)C(=O)NC(CN)C(=O)N[C@@H](Cc1cnc[nH]1)C(=O)N1CCC[C@H]1C(=O)N[C@@H](C)C(=O)N2 (stereo partly specified) (H-GCC[ξDap]HPAC[ξDap]VNNPDIC-NH2; disulfide 2-8, 3-16) , report its inhibition.
Reply: > 95%

---

- TESTED SYSTEM: Neuronal acetylcholine receptor; alpha9/alpha10 (Homo sapiens) (UniProt Q9UGM1+Q9GZZ6)
- ASSAY DETAILS: Antagonist activity at human alpha9alpha10 nAChR expressed in Xenopus laevis oocytes assessed as inhibition of ACh-induced current amplitude at -80 mV holding potential at 100 nM by two-electrode voltage clamp method
- Format: cell-based
- CONDITIONS USED: Oocyte
Positions of bridges follow the written chain, without caps; N, C: chain ends. Non-standard residues stand in square brackets, D forms with d. Residues, ends and D or L forms follow the SMILES beside them. ξ: configuration not given here. ξDab = NCCC(N)C(=O)O
Let's look at some compounds and their measured inhibition.
State just the number; it will be interpreted in %.

Some entries whose results are on file:
>>> value_observed("CC[C@H](C)[C@@H]1NC(=O)[C@H](CC(=O)O)NC(=O)[C@@H]2CCCN2C(=O)[C@H](CC(N)=O)NC(=O)[C@H](CC(N)=O)NC(=O)[C@H](C(C)C)NC(=O)C(CCN)NC(=O)[C@@H]2CSSC[C@H](NC(=O)CN)C(=O)N[C@@H](CSSC[C@@H](C(N)=O)NC1=O)C(=O)N[C@@H](CO)C(=O)N[C@@H](Cc1cnc[nH]1)C(=O)N1CCC[C@H]1C(=O)N[C@@H](C)C(=O)N2 (stereo partly drawn) (H-GCCSHPAC[ξDab]VNNPDIC-NH2; disulfide 2-8, 3-16)")
15
>>> value_observed("CC[C@H](C)[C@@H]1NC(=O)[C@H](CC(=O)O)NC(=O)[C@@H]2CCCN2C(=O)[C@H](CC(N)=O)NC(=O)[C@H](CC(N)=O)NC(=O)[C@H](C(C)C)NC(=O)[C@H](Cc2ccc(O)cc2)NC(=O)[C@@H]2CSSC[C@H](NC(=O)CN)C(=O)N[C@@H](CSSC[C@@H](C(N)=O)NC1=O)C(=O)N[C@@H](CO)C(=O)N[C@@H](Cc1cnc[nH]1)C(=O)N1CCC[C@H]1C(=O)N[C@@H](C)C(=O)N2 (H-GCCSHPACYVNNPDIC-NH2; disulfide 2-8, 3-16)")
5

Attention now shifts to the item below.
Task item: Using the record for CC[C@H](C)[C@@H]1NC(=O)[C@H](CC(=O)O)NC(=O)[C@@H]2CCCN2C(=O)[C@H](CC(N)=O)NC(=O)[C@H](CC(N)=O)NC(=O)[C@H](C(C)C)NC(=O)[C@H](CO)NC(=O)[C@@H]2CSSC[C@H](NC(=O)CN)C(=O)N[C@@H](CSSC[C@@H](C(=O)N[C@@H](CC(C)C)C(N)=O)NC1=O)C(=O)N[C@@H](CO)C(=O)N[C@@H](Cc1cnc[nH]1)C(=O)N1CCC[C@H]1C(=O)N[C@@H](C)C(=O)N2 (H-GCCSHPACSVNNPDICL-NH2; disulfide 2-8, 3-16) , report its inhibition.
Reply: 15
